Biological target: recombinant human FLAP protein (Homo sapiens, UniProt P20292)
Sequence (P20292 1-161): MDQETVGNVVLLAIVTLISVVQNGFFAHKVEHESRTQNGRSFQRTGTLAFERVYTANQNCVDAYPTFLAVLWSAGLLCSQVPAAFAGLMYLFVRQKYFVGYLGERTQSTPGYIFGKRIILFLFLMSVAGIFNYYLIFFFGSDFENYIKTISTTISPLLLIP
Experiment: FLAP binding assay (Scintillation Proximity Assay, displacement of [125I]L-691,831)
Conditions: read-out: FLAP SPA IC50
pIC50: −log10 of the molar value.
Criterion: pIC50 meeting or surpassing 8. Met: rule met. Not met: rule not met.

Prompt line: Does CC(C)C(C)(c1ccc(-c2cnc(N)nc2)nc1)c1noc(-c2cnc(NC[C@@H](C)O)cn2)n1 (stereo partly shown) [Example 19] have a reported pIC50 of at least 8?
Response line: rule met

Prompt line: Does COCCn1cc(-c2nc([C@@](C)(c3ccc(-c4ccc(N)nc4)nc3)C3CC3)no2)cn1 [Example 138] have a reported pIC50 of at least 8?
Response line: rule not met

Prompt line: Does CC(C)[C@](C)(c1ccc(-c2cnc(N)nc2)nc1)c1noc(-c2cnn(CC(F)F)c2)n1 [Example 44] have a reported pIC50 of at least 8?
Response line: rule met

Prompt line: Does COC1CCN(C(=O)Cn2cc(-c3nc([C@@](C)(c4ccc(-c5cnc(N)nc5)nc4)C(C)C)no3)cn2)C1 (stereo partly shown) [Example 150] have a reported pIC50 of at least 8?
Response line: rule not met

Prompt line: Does CC(C)C(C)(c1ccc(-c2cnc(N)nc2)nc1)c1noc(-c2ccc(NCCO)nc2)n1 (stereo not shown) [Example 74] have a reported pIC50 of at least 8?
Response line: rule met

Prompt line: Does Cn1cc(-c2nc(C(C)(c3ccc(-c4ccc(N)nc4)nc3)C3CC3)no2)cn1 (stereo not shown) [Example 118] have a reported pIC50 of at least 8?
Response line: rule not met

Prompt line: Does CC(C)[C@](C)(c1ccc(-c2cnc(N)nc2)nc1)c1noc(-c2cnc(N3CCNCC3)cn2)n1 [Example 51] have a reported pIC50 of at least 8?
Response line: rule met

Prompt line: Does CC(C)(O)Cn1cc(-c2nc([C@@](C)(c3ccc(-c4ccc(N)nc4)nc3)C3CC3)no2)cn1 [Example 139] have a reported pIC50 of at least 8?
Response line: rule not met

Prompt line: Does C[C@@](c1ccc(-c2ccc(N)nc2)nc1)(c1noc(-c2cnn(C3COC3)c2)n1)C1CC1 [Example 115] have a reported pIC50 of at least 8?
Response line: rule not met

Prompt line: Does Cc1nc(N)ncc1-c1ccc(C(C)(c2noc(-c3cnn(C)c3)n2)C2CC2)cn1 (stereo not shown) [Example 180] have a reported pIC50 of at least 8?
Response line: rule not met

Prompt line: Does C[C@](c1ccc(-c2cnc(N)nc2)nc1)(c1noc(-c2cnn(C3COC3)c2)n1)C1CC1 [Example 79] have a reported pIC50 of at least 8?
Response line: rule not met

Prompt line: Does Cn1cc(-c2nc(C(C)(c3ccc(-c4cnc(N)cn4)nc3)C3CC3)no2)cn1 (stereo not shown) [Example 181] have a reported pIC50 of at least 8?
Response line: rule not met

Prompt line: Does CC(C)C(C)(c1ccc(-c2cnc(N)nc2)nc1)c1noc(NCCO)n1 (stereo not shown) [Example 25] have a reported pIC50 of at least 8?
Response line: rule not met

Prompt line: Does CN(C)C(=O)Cn1cc(-c2nc([C@@](C)(c3ccc(-c4cnc(N)cn4)nc3)C3CC3)no2)cn1 [Example 122] have a reported pIC50 of at least 8?
Response line: rule not met

Prompt line: Does CC(C)n1cc(-c2nc(C(C)(c3ccc(-c4cnc(N)nc4)nc3)C(C)C)no2)cn1 (stereo not shown) [Example 28] have a reported pIC50 of at least 8?
Response line: rule met

Prompt line: Does COCCN(C)c1cnc(-c2nc(C(C)(c3ccc(-c4cnc(N)nc4)nc3)C(C)C)no2)cn1 (stereo not shown) [Example 18] have a reported pIC50 of at least 8?
Response line: rule met

Prompt line: Does CC(C)(O)Cn1cc(-c2nc([C@](C)(c3ccc(-c4cnc(N)cn4)nc3)C3CC3)no2)cn1 [Example 101] have a reported pIC50 of at least 8?
Response line: rule not met

Prompt line: Does COCCn1cc(-c2nc([C@](C)(c3ccc(-c4cnc(N)cn4)nc3)C3CC3)no2)cn1 [Example 127] have a reported pIC50 of at least 8?
Response line: rule not met

Prompt line: Does CC(C)[C@@](C)(c1ccc(-c2cnc(N)nc2)nc1)c1noc(-c2cnn(CCF)c2)n1 [Example 49] have a reported pIC50 of at least 8?
Response line: rule not met

Prompt line: Does CC(C)[C@](C)(c1ccc(-c2cnc(N)cn2)nc1)c1noc(-c2cnn(C3COC3)c2)n1 [Example 113] have a reported pIC50 of at least 8?
Response line: rule met

Prompt line: Does CC(C)C(C)(c1ccc(-c2cnc(N)nc2)nc1)c1noc(-c2cn(C)cn2)n1 (stereo not shown) [Example 21] have a reported pIC50 of at least 8?
Response line: rule not met

Prompt line: Does CC(C)C(C)(c1ccc(-c2cnc(N)nc2)nc1)c1noc(-c2ccc(I)cc2)n1 (stereo not shown) [Example 62] have a reported pIC50 of at least 8?
Response line: rule not met

Prompt line: Does CO[C@H]1CCN(C(=O)Cn2cc(-c3nc([C@@](C)(c4ccc(-c5cnc(N)nc5)nc4)C4CC4)no3)cn2)C1 [Example 121] have a reported pIC50 of at least 8?
Response line: rule not met

The reported measurements were obtained from patent US8580825B2.
